# ASSAY INFO: Binding affinity to DNA by DNA-methyl green bioassay
# Set-up: species or system Homo sapiens
pIC50: −log10 of the molar value.
Please provide measured pIC50 for the entries that follow.

List the reported pIC50 of each molecule below.
1. O=C(Nc1ccc2cc3ccc(NC(=O)c4ccccc4)cc3nc2c1)c1ccccc1
2. O=C(Nc1ccc2cc3ccc(NC(=O)c4ccc(Cl)cc4)cc3nc2c1)c1ccc(Cl)cc1
3. COc1ccc(C(=O)Nc2ccc3cc4ccc(NC(=O)c5ccc(OC)cc5)cc4nc3c2)cc1
4. COc1ccc(C(=O)Nc2ccc3cc4ccc(NC(C)=O)cc4nc3c2)cc1OC
5. CCC(=O)Nc1ccc2cc3ccc(NC(=O)CC)cc3nc2c1

A:
["< 3.60", "< 3.60", "< 3.60", "< 3.60", 3.77]

List the reported pIC50 of each molecule below.
1. CC(=O)Nc1ccc2cc3ccc(NC(=O)c4ccc(Cl)cc4)cc3nc2c1
2. CC(=O)Nc1ccc2cc3ccc(NC(C)=O)cc3nc2c1
3. Nc1ccc2cc3ccc(N)cc3nc2c1
4. COc1cccc2c1C(=O)c1c(O)c3c(c(O)c1C2=O)C[C@@](O)(C(=O)CO)C[C@@H]3O[C@H]1C[C@H](N)[C@H](O)[C@H](C)O1

A:
["< 3.60", "< 3.60", "< 3.60", 5.86]

----------
Please provide measured IC50 for the entries that follow.
# Tested on: THP-1
# ASSAY INFO: Cytotoxicity against human THP1 cells
# Format: cell-based

Answered examples (3):
{"QUERY SMILES": "CC(=O)Nc1ccc2cc3ccc(NC(=O)c4ccc(Cl)cc4)cc3nc2c1", "IC50": "1.9 µM"}
{"QUERY SMILES": "CCC(=O)Nc1ccc2cc3ccc(NC(=O)CC)cc3nc2c1", "IC50": "23.2 µM"}
{"QUERY SMILES": "COc1ccc(C(=O)Nc2ccc3cc4ccc(NC(C)=O)cc4nc3c2)cc1", "IC50": "1.76 µM"}

List the reported IC50 of each molecule below.
1. CC(=O)Nc1ccc2cc3ccc(N)cc3nc2c1
2. O=C(Nc1ccc2cc3ccc(NC(=O)c4ccc(F)cc4)cc3nc2c1)c1ccc(F)cc1
3. CCCC(=O)Nc1ccc2cc3ccc(NC(=O)CCC)cc3nc2c1
4. COc1ccc(C(=O)Nc2ccc3cc4ccc(NC(=O)c5ccc(OC)c(OC)c5)cc4nc3c2)cc1OC
5. O=C(Nc1ccc2cc3ccc(NC(=O)c4ccccc4)cc3nc2c1)c1ccccc1

A:
1: 4.7 µM; 2: 0.77 µM; 3: 18.9 µM; 4: 26.8 µM; 5: 110 µM

----------
# Tested on: THP-1
# ASSAY INFO: Cytotoxicity against human THP1 cells
# Type: cell-based
Please provide measured IC50 for the entries that follow.
One number for each entry, in µM.

List the reported IC50 of each molecule below.
1. COc1ccc(C(=O)Nc2ccc3cc4ccc(NC(C)=O)cc4nc3c2)cc1OC
2. CC(=O)Nc1ccc2cc3ccc(NC(=O)c4ccc(F)cc4)cc3nc2c1
3. CC(=O)Nc1ccc2cc3ccc(NC(C)=O)cc3nc2c1

A:
1: 2.1; 2: 1.1; 3: 738

List the reported IC50 of each molecule below.
1. C[C@@H]1[C@H](O)[C@@H](C)/C=C/C=C/C=C/C=C/C=C/C=C/C=C/[C@H](O[C@@H]2O[C@H](C)[C@@H](O)[C@H](N)[C@@H]2O)C[C@@H]2O[C@](O)(C[C@@H](O)C[C@@H](O)[C@H](O)CC[C@@H](O)C[C@@H](O)CC(=O)O[C@H]1C)C[C@H](O)[C@H]2C(=O)O [AMPHOTERICIN B]
2. COc1ccc(C(=O)Nc2ccc3cc4ccc(NC(=O)c5ccc(OC)cc5)cc4nc3c2)cc1
3. CC(=O)Nc1ccc2cc3ccc(NC(=O)c4ccccc4)cc3nc2c1
4. Nc1ccc2cc3ccc(N)cc3nc2c1 [PROFLAVINE]

A:
[154, 13.4, 5.4, 2.21]

Q: Dear colleague, please send me the reported IC50 for O=C(Nc1ccc2cc3ccc(NC(=O)c4ccc(Cl)cc4)cc3nc2c1)c1ccc(Cl)cc1 when you can.
A: 2.49

----------
# ASSAY INFO: Binding affinity to DNA by DNA-methyl green bioassay
# Design: species or system Homo sapiens
pIC50: −log10 of the molar value.
ATTRIBUTE MEASURED: pIC50

{"QUERY SMILES": "CCCC(=O)Nc1ccc2cc3ccc(NC(=O)CCC)cc3nc2c1", "ATTRIBUTE MEASURED": "pIC50", "REPORTED RESULT": 3.99}

List the reported pIC50 of each compound below.
1. CC(=O)Nc1ccc2cc3ccc(NC(=O)c4ccc(F)cc4)cc3nc2c1
2. COc1ccc(C(=O)Nc2ccc3cc4ccc(NC(=O)c5ccc(OC)c(OC)c5)cc4nc3c2)cc1OC
3. CC(=O)Nc1ccc2cc3ccc(N)cc3nc2c1
4. O=C(Nc1ccc2cc3ccc(NC(=O)c4ccc(F)cc4)cc3nc2c1)c1ccc(F)cc1
5. CC(=O)Nc1ccc2cc3ccc(NC(=O)c4ccccc4)cc3nc2c1

A:
1: < 3.60; 2: < 3.60; 3: 4.23; 4: < 3.60; 5: < 3.60

Q: Dear colleague, please send me the reported pIC50 for COc1ccc(C(=O)Nc2ccc3cc4ccc(NC(C)=O)cc4nc3c2)cc1 when you can.
A: < 3.60
